Test system: PCA response
RUN DESCRIPTION: rat Passive Cutaneous Anaphylaxis Test (PCA test)
Assay type: in vivo, rat (male Wistar)
CONDITION PARAMETERS: sc, 10 min, dose 40 mg/Kg, time 10 mins before challenge, subcutaneous, as sodium salt
VALUE KIND: inhibition in vivo at 40 mg/kg (%)
Your answer is read as %, so omit the unit and give the number.

// known answers, use as guide
O=C1C(O)=C([N+](=O)[O-])C(=O)c2cc3c(cc21)CCCC3 [Example 13]    90
COc1ccc2c(c1)C(=O)C(O)=C([N+](=O)[O-])C2=O [Example 5]    85
COc1cc2c(cc1OC)C(=O)C([N+](=O)[O-])=C(O)C2=O [Example 9]    84

Q: Return reported inhibition in vivo at 40 mg/kg; argument: O=C1C(O)=C([N+](=O)[O-])C(=O)c2ccc(-c3ccccc3)cc21 [Example 14]
Result: 23

Q: Return reported inhibition in vivo at 40 mg/kg; argument: CCOc1ccc2c(c1)C(=O)C(O)=C([N+](=O)[O-])C2=O [Example 8]
Result: 79

Q: Return reported inhibition in vivo at 40 mg/kg; argument: Cc1ccc2c(c1)C(=O)C(O)=C([N+](=O)[O-])C2=O [Example 6]
Result: 52

---

Test system: PCA response
RUN DESCRIPTION: rat Passive Cutaneous Anaphylaxis Test (PCA test)
Format: in vivo, rat (male Wistar)
CONDITION PARAMETERS: sc, 10 min, dose 10 mg/Kg, time 10 mins before challenge, subcutaneous, as sodium salt
VALUE KIND: inhibition in vivo at 10 mg/kg (%)
Your answer is read as %, so omit the unit and give the number.

// known answers, use as guide
O=C1C(O)=C([N+](=O)[O-])C(=O)c2cc3c(cc21)CCCC3    80
O=C1C(O)=C([N+](=O)[O-])C(=O)c2ccc(-c3ccccc3)cc21    20

Q: Return reported inhibition in vivo at 10 mg/kg; argument: Cc1ccc2c(c1)C(=O)C(O)=C([N+](=O)[O-])C2=O
Result: 36

Q: Return reported inhibition in vivo at 10 mg/kg; argument: COc1cc2c(cc1OC)C(=O)C([N+](=O)[O-])=C(O)C2=O
Result: 39

Q: Return reported inhibition in vivo at 10 mg/kg; argument: CCOc1ccc2c(c1)C(=O)C(O)=C([N+](=O)[O-])C2=O
Result: 28

Q: Return reported inhibition in vivo at 10 mg/kg; argument: COc1ccc2c(c1)C(=O)C(O)=C([N+](=O)[O-])C2=O
Result: 41

---

Test system: PCA response
RUN DESCRIPTION: rat Passive Cutaneous Anaphylaxis Test (PCA test)
Assay type: in vivo, rat (male Wistar)
CONDITION PARAMETERS: sc, 0.5 h, dose 100 mg/Kg, time 30 mins before challenge, subcutaneous, as sodium salt
VALUE KIND: inhibition in vivo at 100 mg/kg (%)
Your answer is read as %, so omit the unit and give the number.

Cc1ccc2c(c1)C(=O)C([N+](=O)[O-])=C(O)C2=O    30
O=C1C(O)=C([N+](=O)[O-])C(=O)c2ccc(F)cc21    16
Cc1cc2c(cc1C)C(=O)C([N+](=O)[O-])=C(O)C2=O    27
O=C1C(O)=C([N+](=O)[O-])C(=O)c2ccccc21 [Example 1, 2-Hydroxy-3-nitro-1,4naphthoquinone]    30

Q: Return reported inhibition in vivo at 100 mg/kg; argument: O=C1C(O)=C([N+](=O)[O-])C(=O)c2ccc(Br)cc21
Result: 13
